tested-on: Ubiquitin carboxyl-terminal hydrolase 17-like protein 5 (Homo sapiens) (UniProt A8MUK1)
Sequence (A8MUK1 whole entry, looked up): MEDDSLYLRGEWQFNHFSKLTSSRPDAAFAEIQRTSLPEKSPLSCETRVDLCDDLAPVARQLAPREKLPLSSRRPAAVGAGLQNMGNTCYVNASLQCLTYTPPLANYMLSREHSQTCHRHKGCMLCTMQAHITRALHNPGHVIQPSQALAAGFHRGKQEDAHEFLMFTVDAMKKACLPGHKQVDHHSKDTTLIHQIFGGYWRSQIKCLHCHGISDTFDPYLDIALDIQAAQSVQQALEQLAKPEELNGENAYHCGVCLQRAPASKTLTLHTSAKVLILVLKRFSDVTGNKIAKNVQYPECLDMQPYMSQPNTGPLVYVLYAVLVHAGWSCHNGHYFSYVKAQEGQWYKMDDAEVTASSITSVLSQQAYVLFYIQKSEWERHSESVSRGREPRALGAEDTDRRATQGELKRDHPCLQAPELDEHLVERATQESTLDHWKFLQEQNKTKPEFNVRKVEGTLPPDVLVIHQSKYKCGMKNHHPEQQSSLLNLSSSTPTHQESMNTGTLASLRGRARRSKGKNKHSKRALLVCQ
assay-method-text: ubiquitin-specific protease 17 DUB inhibitors, concentration-effect assay, cell-free, verification of initial screening actives (AID 1645864)
experimental-context: purified USP17, ubiquitin-rhodamine cleavage fluorescence, 3 h
The source made the active and inactive calls.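 The calls were made as follows: active = maximal inhibition of USP17 at or above 30% in the confirmation dose-response, a value not among the printed readouts; inactive = the rest.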
Labels: active, inactive

| compound | cat |
| --- | --- |
| Fc1ccc(Nc2nc(Nc3cccc(F)c3)nc3nccnc23)cc1 | inactive |
| O=C(NC1CCN(Cc2ccccc2)CC1)c1[nH]nc2c1COc1ccccc1-2 | inactive |
| O=C(CSc1nc2ccccc2n1S(=O)(=O)c1ccc(Br)cc1)Nc1ccc([N+](=O)[O-])cc1Cl | inactive |
| Cc1ccccc1NC(=O)c1cc(S(=O)(=O)N2CCCCCC2)ccc1Cl | active |
| COc1ccc(NC(=O)Nc2cccc(-c3nnc(-c4ccccc4)o3)c2)cc1OC | active |
| Cc1ccc(Cn2cc(-c3noc(-c4ccc[nH]4)n3)nn2)cc1 | active |
| Cc1cc(C)c2nc3c(cc2c1)CN(Cc1ccco1)C(=O)O3 | inactive |
| Cc1ccc(Cl)c(-n2nnc(C(=O)Nc3ccccc3C#N)c2C)c1 | active |
| COc1cccc(NC(=O)CSc2nnc(-c3cc4cccc(OC)c4o3)n2C)c1 | active |
| Cc1ccc(C(C)C)cc1OCCOCCN1CCNCC1 | inactive |
| CCOC(=O)c1cnc(C(F)(F)F)nc1Sc1n[nH]c(-c2cccs2)n1 | inactive |
| COc1ccc2nc(NC(=O)C(CC(C)C)NS(=O)(=O)c3ccc4c(c3)CCN4C(C)=O)sc2c1 (configuration not stated) | active |
| Cc1nn(-c2cccc(F)c2)c2c1C(C(=O)c1ccc(Cl)s1)CC(=O)N2 (configuration not stated) | active |
| COc1ccc2nc(Nc3nc(-c4cnc(N5CCOCC5)nc4C)cc(=O)[nH]3)nc(C)c2c1 | inactive |
| CC(C)c1cc(Nc2cccc(F)c2)n2nc(-c3cccnc3)nc2n1 | active |
| N#Cc1ccc(NC(=O)Nc2cccn(Cc3c(F)cccc3Cl)c2=O)cc1 | active |
| CC(=O)O[C@H]1[C@]2(O)C[C@]34SS[C@](CO)(C(=O)N3[C@@H]2C[C@@]12O[C@@H](C)C(C)(C)C2=O)N(C)C4=O | inactive |
| Nc1ccccc1SC(CC(=O)c1ccc(Cl)cc1)c1ccsc1 (configuration not stated) | inactive |
| Cc1ccccc1-c1nc(CN(C)S(=O)(=O)c2ccccc2)c(C)o1 | inactive |
| COc1cccc(NC(=O)Nc2ccc3nc4n(c(=O)c3c2)CCCC4)c1 | active |
| CCn1ccc2c(cc(C(=O)Nc3ccccc3F)n2C)c1=O | inactive |
| COc1cc(-c2ccno2)ccc1S(=O)(=O)Nc1ccccc1Cl | inactive |
| COc1cccc2c1OCC(C(=O)NCc1ccc(F)cc1)=C2 | inactive |
| Cc1sc2ncnc(OCc3ccc(F)cc3Cl)c2c1C | inactive |
| Cc1ccccc1NC(=O)Cn1cc(-c2nc(C3CC3)no2)ccc1=O | inactive |
| Cc1nc(-c2noc3ccc(C(=O)Nc4cccnc4)cc23)cs1 | active |
| C/C=C(\Cl)C1=CC(=O)[C@]23C[C@H]2[C@@]2(C)CO[C@@]1(O)[C@@]3(O)O2 | active |
| CC(C)Cc1nc2oc3c(N(C)CCO)ncnc3c2c2c1CCC2 | inactive |
| Cc1cc(C(=O)N2CCOC3(CC=CCN(CCc4ccccc4)C3=O)C2)n2nccc2n1 (configuration not stated) | inactive |
| Cn1ccnc1CN1C[C@H]2CCN(c3ncccn3)C[C@H]2C1 | inactive |
| COc1ccc(-c2cc(C(=O)N3CCN(c4ccc([N+](=O)[O-])cc4)CC3)[nH]n2)cc1 | inactive |
| CCCc1nc2sc3c(NC4CCCCC4)ncnc3c2c2c1CCC2 | inactive |
| Fc1cc(F)c2[nH]cc(-c3nnnn3-c3ccc4ccccc4c3)c2c1 | active |
| CCCCCC(O)c1c(O)cc2c(c1O)C(=O)c1c(O)cc(O)cc1C2=O (configuration not stated) | inactive |
| Cc1ccc(NC(=O)c2sc3ncn(CC(=O)N4CCN(c5ccccn5)CC4)c(=O)c3c2C)c(Br)c1 | active |
| CCOc1ccccc1NC(=O)Cn1ccn2nc(-c3ccc(OC)cc3)cc2c1=O | active |
| Cc1cc(=O)c2c(O)oc(O)c3c(O)cc(=O)c1c32 | active |
| CC(C)NC(=O)Cn1ccn2nc(-c3ccc(Cl)cc3)cc2c1=O | active |
| O=C(NCCCc1nc2ccccc2n1Cc1c(Cl)cccc1Cl)c1ccco1 | active |
| COc1cc(NC(=O)c2cc(CN3CCOCC3)on2)cc(OC)c1 | inactive |
| CSc1ncccc1C(=O)OCc1ccc(Br)cc1 | inactive |
| COc1ccccc1CNC(=O)CCCn1c(=O)c2ccccc2n(CC(=O)N2CCN(c3ccccc3)CC2)c1=O | active |

From: PubChem BioAssay AID1645864
